Assay: LNP size and polydispersity index (PDI) by dynamic light scattering
Format: physicochemical
Conditions: LNP with cirRNA (SEQ ID NO: 1); in nm (unit assumed)
observable: Size

[1] CCCCCCCCC(CCCCCC)C(=O)OCCCCCCCCN(CCCCCCCCOC(=O)C(CCCCCC)CCCCCCCC)CCCOC(=O)NCCN1CCCC1 (stereo not drawn)
[2] CCCCC/C=C\C/C=C\CCCCCCCCN(CCCCCCCC(=O)OC(CCCCCCCC)CCCCCCCC)CCCOC(=O)NCCCN(CC)CC
[3] CCCCC/C=C\C/C=C\CCCCCCCCN(CCCCCCCC(=O)OC(CCCCCCCC)CCCCCCCC)CCCOC(=O)NCCN1CCOCC1
input: Could you please sort these 3 entries by Size from high to low? Answer by writing out the labels in the requested order.
output: 1, 2, 3
(1: 117.2, 2: 74.91, 3: 50.6)

* * *

System: Hep G2 cells
Test: In vitro toxicity (CellTiter-Glo cell viability), Hep G2;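 further: percent of untreated cells luminescence signal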
Format: cell-based
Settings: cirRNA (SEQ ID NO: 1) LNPs; Hep G2 cells
observable: In vitro Viability HepG2 (%)
Give the value, in units of %, as a plain number.

{"compound": "CCCCCCCCCCC(CCCCCCCC)COC(=O)CCCCCN(CCCCCCCCOC(=O)C(CCCCCC)CCCCCCCC)CCCOC(=O)NCCN(C)C (stereo not shown)", "In vitro Viability HepG2 [%]": 81}
{"compound": "CCCCCCCC/C=C\\CCCCCCCCN(CCCCCCCCOC(=O)C(CCCCCC)CCCCCCCC)CCOC(=O)NCc1ncc[nH]1 (stereo not shown)", "In vitro Viability HepG2 [%]": 99}
{"compound": "CCCCC/C=C\\C/C=C\\CCCCCCCCN(CCCCCCCC(=O)OC(CCCCCCCC)CCCCCCCC)CCCOC(=O)NCCN1CCCCC1", "In vitro Viability HepG2 [%]": 91}
{"compound": "CCCCCCCCCCCOC(=O)CCCCCN(CCCCCC(=O)OCCCCCCCCCCC)CCOC(=O)NCCN1CCCCC1", "In vitro Viability HepG2 [%]": 114}
{"compound": "CCCCCCOC(=O)CCCCCCCCCCN(CCCCCCCCCCC(=O)OCCCCCC)CCOC(=O)NCCCN(CC)CC", "In vitro Viability HepG2 [%]": 12}
{"compound": "CCCCCCCCCCCOC(=O)CCCCCN(CCCCCCCC(=O)OC(CCCCCCCC)CCCCCCCC)CCOC(=O)NCCN1CCN(C)CC1", "In vitro Viability HepG2 [%]": 94}

Next:
input: Would you kindly share the measured In vitro Viability HepG2 for CCCCCCCCCCCOC(=O)CCCCCN(CCCCCCCCOC(=O)C(CCCCCC)CCCCCCCC)CCOC(=O)NCCCN(C)C (stereo not shown) ?
output: 90

* * *

Test system: BALB/C mice
Assay: Local tolerance determination by footpad injection
Assay type: in vivo
Conditions: cirRNA (SEQ ID NO: 1) LNP, 0.175 mg*kg-1 subcutaneous into the footpad, 24 hours post minus prior
observable: Footpad Thickness (24 h−0 h, mm)
Give the value, in units of mm, as a plain number.

Some compounds with recorded Footpad Thickness (24 h−0 h, mm):
{"compound": "CCCCCCCCC(CCCCCCCC)OC(=O)CCCCCCCN(CCCCCCCCOC(=O)C(CCCCCC)CCCCCCCC)CCOC(=O)NCCN(C)C (stereo not drawn) [Lipid 66]", "measured on": "BALB/C mice", "unit text": "mm", "Footpad Thickness (24 h−0 h, mm)": 1.43}
{"compound": "CCCCCCCCC(CCCCCC)C(=O)OCCCCCCCCN(CCCCCCCCOC(=O)C(CCCCCC)CCCCCCCC)CCCOC(=O)NCc1ncc[nH]1 (stereo not drawn) [Lipid 375]", "measured on": "BALB/C mice", "unit text": "mm", "Footpad Thickness (24 h−0 h, mm)": 0.27}

Next:
input: Would you kindly share the measured Footpad Thickness (24 h−0 h, mm) for CCCCCCCCCC(=O)OCCCCCCCN(CCCCCCCCOC(=O)C(CCCCCC)CCCCCCCC)CCOC(=O)NCCN1CCCC1 (stereo not drawn) [Lipid 195] ?
output: 0.56
